# Test target: AurA (Homo sapiens)
# Construct: screened for activity against several kinases in Jurkat cells; endogenous in cells; host or cells: Jurkat cell lysate
# Sequence (O14965 whole entry): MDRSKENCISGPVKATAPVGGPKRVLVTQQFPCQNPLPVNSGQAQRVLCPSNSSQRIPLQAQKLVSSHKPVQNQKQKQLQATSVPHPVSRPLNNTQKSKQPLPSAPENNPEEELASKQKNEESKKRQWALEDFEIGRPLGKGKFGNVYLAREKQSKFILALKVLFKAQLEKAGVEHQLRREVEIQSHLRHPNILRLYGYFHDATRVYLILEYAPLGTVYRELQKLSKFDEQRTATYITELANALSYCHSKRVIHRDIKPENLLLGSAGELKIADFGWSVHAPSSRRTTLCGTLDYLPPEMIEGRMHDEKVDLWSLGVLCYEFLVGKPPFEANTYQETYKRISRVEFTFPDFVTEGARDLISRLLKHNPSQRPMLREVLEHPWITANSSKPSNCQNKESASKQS
# Experimental details: Probe-based (AX9989) kinase profiling in Jurkat lysate: AurA
# Type: binding
# Setup conditions: screening concentration 0.1 μM; read-out: Kinase inhibition % at indicated screening concentration: AurA
Item-by-item account of inhibition at 0.1 µM

Check out these entries, answers already filled in.
CCOc1cc(C(=O)N2CCCC(N)C2)ccc1Nc1cc2c(cn1)N(C)C(=O)c1occc1N2C (stereo not drawn)
≤ 35%
CCOc1cc(C(=O)N2CCN(CCO)CC2)ccc1Nc1cc2c(cn1)N(C)C(=O)c1ccccc1N2C
≤ 35%
CCOc1cc(C(=O)N2CCNC[C@H]2C)ccc1Nc1cc2c(cn1)N(C)C(=O)c1ccccc1N2C
≤ 35%
CCOc1cc(C(=O)N2CCC(N3CCCC3)C2)ccc1Nc1cc2c(cn1)N(C)C(=O)c1occc1N2C (stereo not drawn)
≤ 35%
CCOc1cc(C(=O)N2CCC(N3CCCC3)CC2)ccc1Nc1cc2c(cn1)N(C)C(=O)c1occc1N2C
≤ 35%
CCOc1cc(C(=O)N2CCN(C3CC3)CC2)ccc1Nc1cc2c(cn1)N(C)C(=O)c1ccccc1N2C
≤ 35%
COc1cc(C(=O)N2CCC(N(C)C)C2)ccc1Nc1cc2c(cn1)N(C)C(=O)c1ccccc1N2C (stereo not drawn)
≤ 35%
CCOc1cc(C(=O)N2CCC(F)C2)ccc1Nc1cc2c(cn1)N(C)C(=O)c1occc1N2C (stereo not drawn)
≤ 35%

Request the reported inhibition at 0.1 µM associated with CCOc1cc(C(=O)N2CCC(NC3CC3)C2)ccc1Nc1cc2c(cn1)N(C)C(=O)c1ccccc1N2C (stereo not drawn)
≤ 35%

Request the reported inhibition at 0.1 µM associated with CCOc1cc(C(=O)N2CCC(NC)C2)ccc1Nc1cc2c(cn1)N(C)C(=O)c1occc1N2C (stereo not drawn)
≤ 35%

Request the reported inhibition at 0.1 µM associated with CCOc1cc(C(=O)N2CCC[C@H](O)C2)ccc1Nc1cc2c(cn1)N(C)C(=O)c1ccccc1N2C
≤ 35%

Request the reported inhibition at 0.1 µM associated with CCOc1cc(C(=O)N(C)CCN(C)C)ccc1Nc1cc2c(cn1)N(C)C(=O)c1ccccc1N2C
≤ 35%

Request the reported inhibition at 0.1 µM associated with CCOc1cc(C(=O)N2CC[C@@H](NC)C2)ccc1Nc1cc2c(cn1)N(C)C(=O)c1ccccc1N2C
≤ 35%

Request the reported inhibition at 0.1 µM associated with CCOc1cc(C(=O)NCCN(C(C)C)C(C)C)ccc1Nc1cc2c(cn1)N(C)C(=O)c1ccccc1N2C
≤ 35%

Request the reported inhibition at 0.1 µM associated with CCOc1cc(C(=O)N2CCC(c3c[nH]cn3)CC2)ccc1Nc1cc2c(cn1)N(C)C(=O)c1ccccc1N2C
≤ 35%

----------
# Test target: recombinant human ERK5 catalytic domain (Homo sapiens, UniProt Q13164)
# Construct: Recombinant human ERK5 catalytic domain radiometric assays; purchased Reaction Biology, Corp (Malvern, Pa.), which ran the assay as a service
# Sequence (Q13164 55-347 limits assumed): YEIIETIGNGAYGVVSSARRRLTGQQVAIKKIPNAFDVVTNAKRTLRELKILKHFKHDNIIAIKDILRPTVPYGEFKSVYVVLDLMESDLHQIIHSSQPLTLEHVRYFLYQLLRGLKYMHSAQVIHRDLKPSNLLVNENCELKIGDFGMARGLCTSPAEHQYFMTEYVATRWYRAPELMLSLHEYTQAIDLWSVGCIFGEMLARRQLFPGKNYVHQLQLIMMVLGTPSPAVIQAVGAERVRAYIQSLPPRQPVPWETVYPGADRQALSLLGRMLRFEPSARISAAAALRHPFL
# Experimental details: Recombinant human ERK5 radiometric (HotSpot) assay
# Format: biochemical
# Setup conditions: 10 μM ATP, 20 μM myelin basic protein substrate; read-out: rhERK5 IC50
Property name: IC50

Check out these entries, answers already filled in.
CN1C(=O)c2ccccc2N(C)c2cc(N[C@H]3CC[C@H](NS(N)(=O)=O)CC3)ncc21
50 to 200 nM
CCOc1cc(C(=O)N2CCN(CCOC)CC2)ccc1Nc1cc2c(cn1)N(C)C(=O)c1ccccc1N2C
20 to 50 nM
CCOc1cc(C(=O)N2CCC(N3CCN(C)CC3)CC2)ccc1Nc1cc2c(cn1)N(C)C(C(F)(F)F)c1ccccc1N2C (centres unmarked)
> 200 nM

Request the reported IC50 associated with CN1C(=O)c2c(F)cccc2N(C)c2cc(N[C@H]3CC[C@H](O)CC3)ncc21
50 to 200 nM

Request the reported IC50 associated with CN1C(=O)c2ccccc2N(C)c2cc(Nc3ccc(C(=O)N4CCC[C@H](O)C4)cc3OCCF)ncc21
50 to 200 nM

----------
Item-by-item account of inhibition at 10 µM
# Tested on: human CD4+ T cells
# Experimental details: Cytokines produced by human CD4+ T cells stimulated with PMA/ionomycin
# Format: cell-based
# Setup conditions: 10 μM compound, PMA/ionomycin 20 h, read-out: Percent inhibition of MCP-1 (relative to DMSO control)
Your answer is read as %, so omit the unit and give the number.

Check out these entries, answers already filled in.
CCOc1cc(C(=O)NCC2CC2)ccc1Nc1cc2c(cn1)N(C)C(=O)c1ccccc1N2C
70.6
CCOc1cc(C(=O)N2CCNCC2)ccc1Nc1cc2c(cn1)N(C)C(=O)c1ccccc1N2C
66.1
CCOc1cc(C(=O)N2CCC(N3CCCC3)CC2)ccc1Nc1cc2c(cn1)N(C)C(=O)c1ccccc1N2C
67.6
CCOc1cc(C(=O)N2CCC(N3CCN(C)CC3)CC2)ccc1Nc1cc2c(cn1)N(C)C(=O)c1occc1N2C
64.2

Request the reported inhibition at 10 µM associated with CCOc1cc(C(=O)N2CCC(N3CCN(C)CC3)CC2)ccc1Nc1cc2c(cn1)N(C)C(=O)c1ccccc1N2C
65.5

----------
# System: AMPKa1 or AMPKa2
# Experimental details: Probe-based (AX9989) kinase profiling in Jurkat lysate: AMPKa1 or AMPKa2
# Format: binding
# Setup conditions: screening concentration 10 μM
Property name: AMPKa1 or AMPKa2 Inhibition % at indicated screening concentration

Check out these entries, answers already filled in.
CN1C(=O)c2ccccc2N(C)c2cc(N[C@H]3C[C@H](O)C3)ncc21 [Compound T88]
E (E is ≦35%)
C[C@@H]1C[C@H](Nc2cc3c(cn2)N(C)C(=O)c2ccccc2N3C)CC[C@H]1O [Compound T115]
E (E is ≦35%)
CC(C)Oc1cc(C(=O)N2CCC[C@H](O)C2)ccc1Nc1cc2c(cn1)N(C)C(=O)c1ccccc1N2C [Compound T48]
E (E is ≦35%)
CCOc1cc(C(=O)N2CCN(C3CCN(C)CC3)CC2)ccc1Nc1cc2c(cn1)N(C)C(=O)c1c(F)cccc1O2 [Compound T102]
E (E is ≦35%)
CCOc1cc(C(=O)N2CCOCC2)ccc1Nc1cc2c(cn1)N(C)C(=O)c1ccccc1S2(=O)=O [Compound T84]
E (E is ≦35%)
CN1C(=O)c2c(F)cccc2Oc2cc(N[C@H]3CC[C@H](O)CC3)ncc21 [Compound T92]
E (E is ≦35%)

Request the reported AMPKa1 or AMPKa2 Inhibition % at indicated screening concentration associated with CCOc1cc(C(=O)N2CCC(N3CCN(C)CC3)CC2)ccc1Nc1cc2c(cn1)N(C)C(C(F)(F)F)c1ccccc1N2C (stereo not drawn) [Compound T47]
E (E is ≦35%)

Request the reported AMPKa1 or AMPKa2 Inhibition % at indicated screening concentration associated with CCOc1cc(C(=O)N2CCN(C3CCN(C)CC3)CC2)ccc1Nc1cc2c(cn1)N(C)C(=O)c1ccccc1O2 [Compound T98]
E (E is ≦35%)

Request the reported AMPKa1 or AMPKa2 Inhibition % at indicated screening concentration associated with CCOc1cc(C(=O)N2CCC(N3CCCC3)CC2)ccc1Nc1cc2c(cn1)N(C)S(=O)(=O)c1ccccc1N2C [Compound T2]
E (E is ≦35%)

Request the reported AMPKa1 or AMPKa2 Inhibition % at indicated screening concentration associated with CCOc1cc(C(=O)N2CCC(N3CCCC3)CC2)ccc1Nc1cc2c(cn1)N(C)C(=O)N1C=CC=CC1=N2 [Compound T66]
E (E is ≦35%)

Request the reported AMPKa1 or AMPKa2 Inhibition % at indicated screening concentration associated with CCOc1cc(C(=O)N2CCN(C3CCN(C)CC3)CC2)ccc1Nc1cc2c(cn1)N(C)C(=N)c1ccccc1N2C [Compound T80]
E (E is ≦35%)

Request the reported AMPKa1 or AMPKa2 Inhibition % at indicated screening concentration associated with CCOc1cc(C(=O)O)ccc1Nc1cc2c(cn1)N(C)S(=O)(=O)c1ccccc1N2C [Compound T1]
E (E is ≦35%)

Request the reported AMPKa1 or AMPKa2 Inhibition % at indicated screening concentration associated with CCOc1cc(C(=O)N2CCOCC2)ccc1Nc1cc2c(cn1)N(C)C(=O)c1ccccc1[S+]2[O-] (stereo not drawn) [Compound T83]
E (E is ≦35%)

----------
# Test target: TAF1 (Homo sapiens)
# Construct: made in house; host or cells: E. coli host derived from the BL21 strain (T7 phage lysate)
# Sequence (P21675 1519-1628 limits assumed): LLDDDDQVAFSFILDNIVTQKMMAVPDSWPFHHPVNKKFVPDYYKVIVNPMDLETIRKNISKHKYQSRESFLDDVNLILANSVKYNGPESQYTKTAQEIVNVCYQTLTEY
# Experimental details: Bromodomain binding assay: TAF1
# Setup conditions: read-out: Kd (nM) TAF1
Property name: Kd
Number plus unit, in that order.

Request the reported Kd associated with CCOc1cc(C(=O)N[C@H]2CC[C@H](O)CC2)ccc1Nc1cc2c(cn1)N(C)C(=O)c1ccccc1N2C
12000 nM
